molecular target: Recombinant human Gal3 (rhGal3) (TrueBinding, #QC200361) (human, UniProt P17931 2-250); experiment: cell-based or functional assay; further: test concentration or dose not given here
Readout: % inhibition of TNFα secretion (%)
Just the number in %, nothing appended.

Reported % inhibition of TNFα secretion ( 849.4F12 (antibody, V domains shown) VH: QVQLKESGPGILQPSQTLSLTCSFSGFSLSTFGMGVGWIRQPSGKGLEWLAHIWWDDDKHYNPALKSRLTISKDTSKNQVFLRIANVDTADNATYYCARIDYGDYVGFAYWGQGTLVTVSA VL: DILLTQSPSSMSVSLGDTVSITCHASQGINSNIGWLQQKPGKSFKGLIYHGTNLEDGVPSRFSGSGSGADYSLTISSLESEDFADYYCVQYDQFPWTFGGGTKLEIK ) = -81.5

Looking up 849.2D7 (antibody, V domains shown) VH: QVQLQQSGPQLVRPGASVKISCKASGYSFTNYWMHWVKQRPGQGLEWIGMIDPSDSETRLNQKFKDKATLTVDKSSSTAYMQLSSPTSEDSAVYYCATGRPDYWGQGTTLTVSS VL: DIVMTQSHKFMSTSVGDRVSITCKASQDVSTAVAWYQQKPGQSPKLLIYWASTRHTGVPDRFTGSGSGTDYTLTISSVQAEDLALYYCQQHYSTPYTFGGGTKLEIK , I found its % inhibition of TNFα secretion recorded as 42.7
